- System: HCT-116 colon
- Assay: NCI tumour cell line growth inhibition, 48 h
List of TGI values.

Examples with their reported TGI follow.
{"columns": ["Compound", "TGI"],
 "data": [
  ["c1ccc2c(c1)cc1n2CC2CN=NC12 (stereo not given)", "> 100 µM"],
  ["CC1C(c2ccc(Cl)cc2)c2cc3c(cc2OC1N1CCOCC1)OCO3 (stereo not given)", "> 100 µM"],
  ["CCCCCCCCCCCC[n+]1ccc2ccccc2c1", "2.37 µM"],
  ["Cn1nc(-c2ccccc2)c2c(/C=C/c3ccccc3)onc2c1=O", "> 100 µM"],
  ["CC1(C)C(=O)C(C)(C)C1=S", "> 100 µM"],
  ["CCN1CCN(C(=O)[C@]23CCC(C)(C)C[C@@H]2C2=CC[C@@H]4[C@@]5(C)C/C(=C/c6ccncc6)C(=O)C(C)(C)[C@@H]5CC[C@@]4(C)[C@]2(C)CC3)CC1", "2.87 µM"],
  ["COc1cc(C2c3cc4c(cc3OC(NCCO)C2C)OCO4)cc(OC)c1OC (stereo not given)", "> 100 µM"],
  ["COC(=O)C=Cc1ccc2nncnc2c1 (mixture of isomers)", "> 100 µM"]
]}

Give the value of TGI reported for the following: c1ccc2c3c([nH]c2c1)C(c1ccc(C2NCCc4c2[nH]c2ccccc42)cc1)NCC3 (stereo not given)
0.335 µM

Give the value of TGI reported for the following: CN(C)c1cc[n+](-c2nc(/N=C(\[O-])C(F)(F)F)nc3c2ncn3C2CC(O)C(CO)O2)cc1 (stereo not given)
> 100 µM
